Heads up, these compounds all have Ki values measured for Histamine H3 receptor (Homo sapiens, UniProt Q9Y5N1).
READOUT: Ki (nM)

{"STRUCTURE_SMILES_STRING": "COc1ccc(OCCCc2c[nH]cn2)cc1", "RESULT_UNIT": "nM", "Ki": 47}

P. CC(=O)c1ccc(SCCc2cnc[nH]2)cc1
Q. CC(=O)c1ccc(OCCc2cnc[nH]2)cc1
Hi, I'm comparing two records. Which one has the lower Ki, P or Q ? # reply format: chosen label
P
(P: 1.1 nM, Q: 42 nM)

----------
Molecular target: Histamine H3 receptor (Rattus norvegicus, UniProt Q9QYN8)
Sequence (Q9QYN8 whole entry): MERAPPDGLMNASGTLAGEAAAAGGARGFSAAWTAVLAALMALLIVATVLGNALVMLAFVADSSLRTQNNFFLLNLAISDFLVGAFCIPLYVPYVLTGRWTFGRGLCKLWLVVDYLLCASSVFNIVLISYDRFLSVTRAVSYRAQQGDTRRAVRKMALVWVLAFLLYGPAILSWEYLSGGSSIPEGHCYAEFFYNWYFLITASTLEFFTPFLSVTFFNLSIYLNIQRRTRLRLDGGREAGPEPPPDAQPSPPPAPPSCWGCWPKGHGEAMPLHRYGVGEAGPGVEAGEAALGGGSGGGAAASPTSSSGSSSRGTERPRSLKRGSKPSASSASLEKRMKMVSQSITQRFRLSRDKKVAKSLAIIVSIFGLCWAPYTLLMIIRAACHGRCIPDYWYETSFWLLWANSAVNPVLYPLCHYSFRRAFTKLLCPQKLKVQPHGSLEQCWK
Assay: biochemical
Assay type: cell-based, CHO-K1
Description: Inhibition of [125I]iodoproxyfan from rat histamine H3 receptor expressed in CHO-K1 cells
pKi: −log10 of the molar value.
READOUT: pKi

Example compounds with recorded pKi:
{"COMPOUND": "COc1ccc(OCCCc2c[nH]cn2)cc1", "OBSERVED_MEASUREMENT": 8.10}
{"COMPOUND": "CC(=O)c1ccc(OCCCc2c[nH]cn2)cc1", "OBSERVED_MEASUREMENT": 7.54}
{"COMPOUND": "CC(=O)c1ccc(SCCCc2c[nH]cn2)cc1", "OBSERVED_MEASUREMENT": 7.36}

a. c1ccc(COCCCc2c[nH]cn2)cc1 [PROXYFAN]
b. Ic1ccc(COCCCc2c[nH]cn2)cc1 [IODOPROXYFAN]
# returns the entry with the larger pKi; inputs a and b State the label of the item chosen.
a
(a: 8.54, b: 7.15)

----------
Target: UniProt Q9QYN8
Experiment: Binding affinity to rat Histamine H3 receptor in CHO-K1 cells using [125I]iodoproxyfan as radioligand
Assay type: cell-based
READOUT: Ki (nM)
Numbers only here, please. The scale is nM.

Which Ki value is on record for S=C(NC1CCCCC1)N1CCC(c2cnc[nH]2)CC1 [THIOPERAMIDE] ?
6.5

----------
Biological target: Histamine H3 receptor (Rattus norvegicus, UniProt Q9QYN8)
Experiment: biochemical
Assay type: cell-based, CHO-K1
pKi: −log10 of the molar value.
READOUT: pKi

{"STRUCTURE_SMILES_STRING": "O=C(c1ccc(OCCCc2cnc[nH]2)cc1)C1CC1", "pKi": 8.41}

A. CC(=O)c1ccc(OCCCCc2cnc[nH]2)cc1
B. CC(=O)c1ccc(SCCc2cnc[nH]2)cc1
C. CC(=O)c1ccc(OCCc2cnc[nH]2)cc1
Returns the items ordered by pKi, from maximum to minimum. Answer by listing the labels in the requested order.
B, C, A
(B: 9.96, C: 8.44, A: 7.44)

Entry source: ChEMBL document CHEMBL1134016
